# Study Target: ALK (kinase domain, 1068–1410) (Homo sapiens)
# Sequence (Q9UM73 1068-1410): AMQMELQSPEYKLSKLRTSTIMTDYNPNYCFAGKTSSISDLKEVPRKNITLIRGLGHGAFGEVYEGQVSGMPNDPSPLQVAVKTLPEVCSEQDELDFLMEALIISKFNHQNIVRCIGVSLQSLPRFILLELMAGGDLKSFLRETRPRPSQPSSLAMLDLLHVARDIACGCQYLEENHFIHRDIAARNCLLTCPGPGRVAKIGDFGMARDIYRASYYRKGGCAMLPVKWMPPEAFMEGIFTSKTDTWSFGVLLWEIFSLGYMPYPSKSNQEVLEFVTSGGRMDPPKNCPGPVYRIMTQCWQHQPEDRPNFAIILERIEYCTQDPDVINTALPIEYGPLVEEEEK
# Test: Enzymatic inhibition assay, ATP hydrolysis (Kinase-Glo luminescent kit)
Experimental Endpoint: IC50 (nM)

1 = CC(=O)OC[C@H]1O[C@@H](OC(=O)N2CCC(n3cc(-c4cnc(N)c(O[C@H](C)c5c(Cl)ccc(F)c5Cl)c4)cn3)CC2)[C@H](OC(C)=O)[C@@H](OC(C)=O)[C@@H]1OC(C)=O [GA89]
2 = C[C@@H](Oc1cc(-c2cnn(C3CCN(C(=O)O[C@@H]4O[C@H](CO)[C@@H](O)[C@H](O)[C@H]4O)CC3)c2)cnc1N)c1c(Cl)ccc(F)c1Cl [GA95]
Qu. Given 1 and 2 , report the one with the higher recorded IC50. Respond using the label that marks the chosen record.
Ans. 1
